The measured values listed here are drawn from patent US20200283478A1.

Biological target: T1, His-tagged PCSK9Δhelix (human, UniProt Q8NBP7 31-152; Q8NBP7 168-692)
T1 construct: Construct M1-Q692 with engineered TEV site, cut by TEV protease; new N-terminus of the catalytic domain is S-A168; also called His-PCSK9Δhelix
T1 sequence (Q8NBP7 31-152, stated change not applied, chain 1 of 2): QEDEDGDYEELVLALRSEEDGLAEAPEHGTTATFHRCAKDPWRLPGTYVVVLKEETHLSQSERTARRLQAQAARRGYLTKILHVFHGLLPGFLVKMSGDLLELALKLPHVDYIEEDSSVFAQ
T1 sequence (Q8NBP7 other isoform, or with tags, fused parts or gaps mutant, chain 2 of 2): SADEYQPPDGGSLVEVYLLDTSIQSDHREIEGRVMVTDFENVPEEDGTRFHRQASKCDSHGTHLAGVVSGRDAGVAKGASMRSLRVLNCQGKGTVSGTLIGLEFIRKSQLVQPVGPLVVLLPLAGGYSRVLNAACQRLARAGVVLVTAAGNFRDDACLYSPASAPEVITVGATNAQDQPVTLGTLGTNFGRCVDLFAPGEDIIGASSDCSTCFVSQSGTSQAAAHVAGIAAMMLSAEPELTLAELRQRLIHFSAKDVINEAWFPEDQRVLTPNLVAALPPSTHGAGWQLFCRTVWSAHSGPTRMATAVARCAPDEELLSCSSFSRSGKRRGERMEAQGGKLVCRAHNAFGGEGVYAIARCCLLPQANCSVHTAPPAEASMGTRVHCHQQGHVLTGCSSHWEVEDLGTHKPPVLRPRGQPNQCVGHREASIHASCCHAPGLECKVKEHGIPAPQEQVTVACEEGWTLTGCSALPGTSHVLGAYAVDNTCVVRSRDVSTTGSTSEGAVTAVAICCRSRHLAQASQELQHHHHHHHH
Assay: TR-FRET competition; His-PCSK9Δhelix, competitor Ab20
Square brackets hold non-standard residues; d marks the D form. Ends that are not written are not given here. * marks the point of attachment. Trp(6-Me) = Cc1ccc2c(C[C@H](N)C(=O)O)c[nH]c2c1; hArg = N=C(N)NCCCC[C@H](N)C(=O)O; Pentanoyl = CCCCC(=O)*
MEASURED METRIC: IC50 (µM)
Give bare numbers, in µM.

Consider the worked cases shown below.
BINDER	MEAS VALUE
WNLV[hArg]IGQR (also: further groups not given here, Structure printed only as a drawing) [Compound 239]	1.2
WNLV[hArg]IGLLR (also: further groups not given here, Structure printed only as a drawing) [Compound 208]	0.1
WNLVRIGLLR (also: further groups not given here, Structure printed only as a drawing) [Compound 136]	9

I would be grateful if you could provide IC50 for each of the following entries.
1. WNLV[hArg]IGLLR (also: further groups not given here, Structure printed only as a drawing) [Compound 213]
2. Ac-SFAFPGWNLV[hArg]IGLLR-NH2 (SMILES CC[C@H](C)[C@H](NC(=O)[C@H](CCCCNC(=N)N)NC(=O)[C@@H](NC(=O)[C@H](CC(C)C)NC(=O)[C@H](CC(N)=O)NC(=O)[C@H](Cc1c[nH]c2ccccc12)NC(=O)CNC(=O)[C@@H]1CCCN1C(=O)[C@H](Cc1ccccc1)NC(=O)[C@H](C)NC(=O)[C@H](Cc1ccccc1)NC(=O)[C@H](CO)NC(C)=O)C(C)C)C(=O)NCC(=O)N[C@@H](CC(C)C)C(=O)N[C@@H](CC(C)C)C(=O)N[C@@H](CCCNC(=N)N)C(N)=O) [Compound 228]
3. WNLV[hArg]IGLLR (also: further groups not given here, Structure printed only as a drawing) [Compound 211]
4. Pentanoyl-[Trp(6-Me)]NLVRIGLTR-NH2 (SMILES CCCCC(=O)N[C@@H](Cc1c[nH]c2cc(C)ccc12)C(=O)N[C@@H](CC(N)=O)C(=O)N[C@@H](CC(C)C)C(=O)N[C@H](C(=O)N[C@@H](CCCNC(=N)N)C(=O)N[C@H](C(=O)NCC(=O)N[C@@H](CC(C)C)C(=O)N[C@H](C(=O)N[C@@H](CCCNC(=N)N)C(N)=O)[C@@H](C)O)[C@@H](C)CC)C(C)C) [Compound 175]
5. WNLVRIGLLR (also: further groups not given here, Structure printed only as a drawing) [Compound 143]
6. WNLV[hArg]IGLLR (also: end groups and other groups only in drawing, Structure printed only as a drawing) [Compound 200]
7. WNLVRIGLLR (also: further groups not given here, Structure printed only as a drawing) [Compound 149]
8. WNLVRIGLLR (also: further groups not given here, Structure printed only as a drawing) [Compound 130]

# output
1. 0.2
2. 13
3. 3.8
4. 39
5. 23
6. 0.67
7. 8.9
8. 8.6

For each of the items listed, what is its IC50?
1. WNLV[hArg]IGLLR (also: further groups not given here, Structure printed only as a drawing) [Compound 221]
2. WNLVRIGLLR (also: further groups not given here, Structure printed only as a drawing) [Compound 128]
3. Pentanoyl-WNLV[hArg]IGLLR-NH2 (also called n-BuC(O)-WNLV(homoR)IGLLR-NH2) [Compound 191]
4. WNLVRIGLTR (also: further groups not given here, Structure printed only as a drawing) [Compound 162]

# output
1: 0.65; 2: 7.5; 3: 1.3; 4: 37

Give me IC50 for each of these binders, listed below.
1. WNLVRIGLTR (also: further groups not given here, Structure printed only as a drawing) [Compound 161]
2. WNLVRIGLLR (also: further groups not given here, Structure printed only as a drawing) [Compound 129]

# output
1. 5
2. 23

# input // query IC50 value for entry Pentanoyl-WNLVRIGLSR-NH2 (SMILES CCCCC(=O)N[C@@H](Cc1c[nH]c2ccccc12)C(=O)N[C@@H](CC(N)=O)C(=O)N[C@@H](CC(C)C)C(=O)N[C@H](C(=O)N[C@@H](CCCNC(=N)N)C(=O)N[C@H](C(=O)NCC(=O)N[C@@H](CC(C)C)C(=O)N[C@@H](CO)C(=O)N[C@@H](CCCNC(=N)N)C(N)=O)[C@@H](C)CC)C(C)C) [Compound 181]
# output 8.9
